These measurements were taken from the METLIN SMRT retention time set (Domingo-Almenara et al. 2019).

// reported RP-LC retention time per item
assay-comment: gradient 5% acetonitrile 3 min, to 50% in 2 min, to 85% in 15 min, held 3 min, 100 µL/min
condition-info: column: Zorbax Extend-C18 2.1 x 50 mm; eluents: water / acetonitrile, 0.1% formic acid
readout: RP-LC retention time (s)

>  <compound>
Cc1cc(F)ccc1NS(=O)(=O)c1c(C)sc(C)c1-c1cc(C(F)(F)F)on1

>  <value-observed>
1200

$$$$
>  <compound>
CCCNC(=O)CC1Sc2ncccc2N(CC)C1=O (centres undefined)

>  <value-observed>
642

$$$$
>  <compound>
CCc1noc(NC(C)=O)c1-c1ccc(OC)c(S(=O)(=O)Nc2ccc(Cl)cc2C)c1

>  <value-observed>
841

$$$$
>  <compound>
Clc1ccc(-c2nc(N3CCCC3)c3ccccc3n2)cc1

>  <value-observed>
726

$$$$

====

assay-comment: gradient 5% acetonitrile 3 min, to 50% in 2 min, to 85% in 15 min, held 3 min, 100 µL/min
condition-info: column: Zorbax Extend-C18 2.1 x 50 mm; eluents: water / acetonitrile, 0.1% formic acid
// reported RP-LC retention time per item

>  <compound>
CCCN1C(=O)c2cc(C(=O)NCc3ccc(F)cc3)nn2CC1(C)C(=O)NC1CCCC1 (centres undefined)

>  <endpoint-unit>
s

>  <RP-LC retention time>
824

$$$$
>  <compound>
Cc1cc(-c2nnc(C3CCC3)o2)c(C)n1CC(=O)NCc1ccc(F)c(Cl)c1

>  <endpoint-unit>
s

>  <RP-LC retention time>
904

$$$$
>  <compound>
OCCN(Cc1ccccc1)CC(O)COc1ccc(Cl)cc1Cl (centres undefined)

>  <endpoint-unit>
s

>  <RP-LC retention time>
602

$$$$
>  <compound>
CC(=O)Nc1c(C)nn(-c2ccccc2)c1N1CCC(C(=O)NCCCN2CCCC2=O)CC1

>  <endpoint-unit>
s

>  <RP-LC retention time>
605

$$$$

====

assay-comment: gradient 5% acetonitrile 3 min, to 50% in 2 min, to 85% in 15 min, held 3 min, 100 µL/min
condition-info: column: Zorbax Extend-C18 2.1 x 50 mm; eluents: water / acetonitrile, 0.1% formic acid
// reported RP-LC retention time per item

>  <molecule>
O=C(NC1CCCc2ccccc21)c1cc2sccc2n1Cc1ccc(Cl)cc1 (stereo unspecified)

>  <RP-LC retention time>
1320 s

$$$$
>  <molecule>
O=C(Cn1c(=O)cc(C(=O)N2CCCC2)c2ccccc21)Nc1ccccc1Cl

>  <RP-LC retention time>
714 s

$$$$
>  <molecule>
CN(C)C(=O)c1ccc2c(c1)nc(CN(C)C(=O)Nc1ccc(Br)cc1F)n2C

>  <RP-LC retention time>
637 s

$$$$
>  <molecule>
Cn1nnc2ccc(-c3noc(-c4cccc(F)c4)n3)cc21

>  <RP-LC retention time>
1010 s

$$$$
>  <molecule>
Cc1ccc(-c2ccc(N3CCCC(C(=O)N4CCN(C(C)C)CC4)C3)nn2)cc1C (stereo unspecified)

>  <RP-LC retention time>
623 s

$$$$
>  <molecule>
COCCNC(=O)c1nc2cccnc2n(C)c1=O

>  <RP-LC retention time>
585 s

$$$$

====

assay-comment: gradient 5% acetonitrile 3 min, to 50% in 2 min, to 85% in 15 min, held 3 min, 100 µL/min
condition-info: column: Zorbax Extend-C18 2.1 x 50 mm; eluents: water / acetonitrile, 0.1% formic acid
Classify: t when RP-LC retention time is strictly less than 800 s; f when RP-LC retention time is not.

>  <compound>
COc1ccc(CC(=O)NCCc2cn(C)c3ncccc23)cc1Cl

>  <group>
t

$$$$
>  <compound>
Cc1ccc(Nc2cc(C)n3c(=O)n(Cc4cc(=O)n5ccccc5n4)nc3n2)cc1F

>  <group>
f

$$$$
>  <compound>
CC(=O)c1ccc(NC(=O)CCSc2ccc(Cl)cc2)cc1

>  <group>
f

$$$$
>  <compound>
Cc1oc(C2CCN(C(=O)c3ccc(C#N)cc3)CC2)nc1C(=O)N(C)C

>  <group>
t

$$$$
>  <compound>
Cc1ccccc1C(=O)NCCc1c[nH]c2ccc(Cl)cc12

>  <group>
f

$$$$
>  <compound>
Cn1c(C2CCN(C(=O)c3ccc(Br)cc3)CC2)cc(=O)n2nccc12

>  <group>
t

$$$$
>  <compound>
COc1ccc(S(=O)(=O)N2CCC3(CC2)CC(C)(O)CCO3)cc1 (centres undefined)

>  <group>
t

$$$$
>  <compound>
COc1ccc(CCc2nc3nccc(-c4ccc(OC)c(OC)c4)n3n2)cc1

>  <group>
f

$$$$
